- measured target: T1, human ROR1 Frizzled domain (hROR1-Fz) (human, UniProt Q01973 165-305)
- T1 construct: Acro Biosystems, made in HEK293
- T1 sequence (Q01973 other isoform, or with tags, fused parts or gaps): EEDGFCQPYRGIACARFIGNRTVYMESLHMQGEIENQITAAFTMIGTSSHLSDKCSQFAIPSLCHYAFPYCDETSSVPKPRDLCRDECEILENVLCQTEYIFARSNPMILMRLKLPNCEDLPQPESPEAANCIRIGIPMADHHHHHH
- method description: SPR Biacore, IgG on anti-Fc, ROR1-Fz analyte
metric name: kon (M⁻¹ s⁻¹)
Write the number in M⁻¹ s⁻¹ without appending the unit.

# get_value(readout='kon', item= SRP2196-A03 (antibody, V domains shown, His/FLAG-tagged IgG1; also called Antibody 150) VH: EVQLVESGGGLVQPGGSLRLSCAASGFNITQYHIHWVRQAPGKGLEWVGYISPNSGSTHEADSVKGRFTISADTSKNTAYLQMNSLRAEDTAVYYCARDSRRYVRGWDYWGQGTLVTVSS VL: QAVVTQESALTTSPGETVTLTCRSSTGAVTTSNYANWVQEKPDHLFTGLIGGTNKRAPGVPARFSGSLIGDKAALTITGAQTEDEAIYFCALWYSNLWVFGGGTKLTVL ) 169000
